molecular target: MMP-2 (Homo sapiens, UniProt P08253); experiment: Automated MMP Profiling Assay, MMP-2 fluorogenic; type: biochemical; conditions: 96-well automated, P218; read-out: MMP-2 Fluorogenic IC50 (profiling)
Sequence (P08253 110-660): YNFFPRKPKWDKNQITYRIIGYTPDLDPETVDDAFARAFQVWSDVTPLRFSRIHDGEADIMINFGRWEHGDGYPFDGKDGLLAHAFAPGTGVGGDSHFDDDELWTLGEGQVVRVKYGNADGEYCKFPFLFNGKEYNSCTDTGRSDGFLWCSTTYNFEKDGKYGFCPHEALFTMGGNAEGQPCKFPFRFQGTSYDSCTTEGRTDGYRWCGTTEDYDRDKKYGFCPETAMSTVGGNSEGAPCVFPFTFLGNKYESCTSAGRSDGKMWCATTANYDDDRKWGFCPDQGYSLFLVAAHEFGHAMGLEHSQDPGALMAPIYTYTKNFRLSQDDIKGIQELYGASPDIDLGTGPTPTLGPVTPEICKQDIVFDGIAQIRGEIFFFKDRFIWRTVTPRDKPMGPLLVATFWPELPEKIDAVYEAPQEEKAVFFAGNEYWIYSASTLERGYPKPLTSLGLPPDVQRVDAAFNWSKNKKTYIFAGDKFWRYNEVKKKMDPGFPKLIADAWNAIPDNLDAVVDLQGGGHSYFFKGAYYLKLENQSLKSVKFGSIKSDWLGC
Would you mind sorting the entries by IC50 according to these classes? Low: < 0.02 µM; Medium: ≥ 0.02 µM and < 0.08 µM; High: ≥ 0.08 µM

Reference set (5 entries):
O=C(O)[C@H]1[C@H](COc2ccc(Cl)cc2)CC[C@@H]1C(=O)c1ccc(-c2ccc(Cl)cc2)cc1 (relative stereo) [Example 388] ... Medium
O=C(CC(CCN1C(=O)c2cccc3c(Br)ccc(c23)C1=O)C(=O)O)c1ccc(-c2ccc(Cl)cc2)cc1 (stereo not drawn) [Example 418] ... High
CCCCCOc1ccc(-c2ccc(C(=O)C3CCC=C3C(=O)O)cc2)cc1 (stereo not drawn) [Example 442] ... High
O=C(O)[C@H]1CN(C(=O)OCc2ccccc2)C[C@@H]1C(=O)c1ccc(-c2ccc(Cl)cc2)cc1 (relative stereo) [Example 174] ... Medium
O=C(O)[C@@H]1[C@@H](C(=O)c2ccc(-c3ccc(Cl)cc3)cc2)CC[C@H]1Sc1ccccc1 (relative stereo) [Example 294] ... Low

Determine which band this compound sits in: CCCSC[C@@H]1CC[C@H](C(=O)c2ccc(-c3ccc(Cl)cc3)cc2)[C@H]1C(=O)O (relative stereo) [Example 374]
Medium

* * *

target: MMP-9 (Homo sapiens); construct: from tissue; host or cells: human polymorphonuclear leukocytes (PMN) from whole blood (New York Blood Center), PMA-stimulated supernatant; assay: Automated MMP Profiling Assay, MMP-9 fluorogenic; assay type: biochemical; details: 96-well automated, P218
Sequence (P14780 107-707 limits assumed): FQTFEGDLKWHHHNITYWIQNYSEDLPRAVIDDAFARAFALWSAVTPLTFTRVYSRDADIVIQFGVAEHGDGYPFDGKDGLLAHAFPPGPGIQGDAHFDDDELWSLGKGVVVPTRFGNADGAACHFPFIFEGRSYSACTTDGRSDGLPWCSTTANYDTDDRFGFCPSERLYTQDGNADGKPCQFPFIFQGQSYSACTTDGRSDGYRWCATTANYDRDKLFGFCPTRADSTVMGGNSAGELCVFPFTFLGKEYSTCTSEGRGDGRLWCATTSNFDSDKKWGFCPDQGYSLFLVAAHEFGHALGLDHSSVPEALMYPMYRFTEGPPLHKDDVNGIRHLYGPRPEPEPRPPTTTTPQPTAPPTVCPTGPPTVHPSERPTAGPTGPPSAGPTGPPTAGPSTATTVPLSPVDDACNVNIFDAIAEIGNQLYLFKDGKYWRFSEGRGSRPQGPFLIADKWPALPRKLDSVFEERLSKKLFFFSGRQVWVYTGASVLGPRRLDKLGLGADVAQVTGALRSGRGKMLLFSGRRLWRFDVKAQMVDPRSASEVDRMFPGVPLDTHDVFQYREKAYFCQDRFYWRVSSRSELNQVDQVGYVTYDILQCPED
Listed below: IC50 values for each entry.
Field format: number, assumed nM, no unit text.

CCCCCOc1ccc(-c2ccc(C(=O)CC(CCc3cccc(C(=O)N(CC)CC)c3)C(=O)O)cc2)cc1 (centres unmarked) [Example 164] ... 82
O=C(CC(CCNC(=O)c1ccccc1C(=O)O)C(=O)O)c1ccc(-c2ccc(Cl)cc2)cc1 (single isomer, unassigned) [Example 280] ... 66
COc1ccc2c(c1)C(=O)N(CCC(CC(=O)c1ccc(-c3ccc(Cl)cc3)cc1)C(=O)O)C2=O (centres unmarked) [Example 422] ... 1.6

Form field IC50, entry CCCCCOc1ccc(-c2ccc(C(=O)C[C@H](CCCc3ccccc3)C(=O)O)cc2)cc1 [Example 86] : 442

Form field IC50, entry CC(=O)O[C@@H]1C[C@H](C(=O)c2ccc(-c3ccc(Cl)cc3)cc2)[C@H]1C(=O)O (relative stereo) [Example 396] : 2290

* * *

Listed below: IC50 values for each entry.
biological target: MMP-2 (Homo sapiens); experiment: Automated MMP Profiling Assay, MMP-2 fluorogenic; format: biochemical; details: 96-well automated, P218; read-out: MMP-2 Fluorogenic IC50 (profiling)
Field format: number, assumed µM, no unit text.

CCCCCCOc1ccc(-c2ccc(C(=O)CC(CCc3ccccc3)C(=O)O)cc2)cc1 (stereo not shown) ... 0.042
O=C(CC(CCc1cccc(I)c1)C(=O)O)c1ccc(-c2ccc(OCc3ccccc3)cc2)cc1 (stereo not shown) ... 0.017
O=C(CC(CCN1C(=O)c2cccc(O)c2C1=O)C(=O)O)c1ccc(-c2ccc(Cl)cc2)cc1 (stereo not shown) ... 0.00075
O=C(O)[C@H]1[C@H](CN2C(=O)c3cc(Cl)c([N+](=O)[O-])cc3C2=O)CC[C@@H]1C(=O)c1ccc(-c2ccc(Cl)cc2)cc1 (relative stereo) ... 0.015
O=C(C[C@@H](CCCc1ccccc1)C(=O)O)c1ccc(-c2ccc(OCc3ccccc3)cc2)cc1 ... 3.32

Form field IC50, entry O=C(OC[C@@H]1CC[C@H](C(=O)c2ccc(-c3ccc(Cl)cc3)cc2)[C@H]1C(=O)O)c1ccccc1 (relative stereo) : 0.037

Form field IC50, entry O=C(CC(CC[S+]([O-])c1ccccc1)C(=O)O)c1ccc(-c2ccc(Cl)cc2)cc1 (stereo not shown) : 0.016

Form field IC50, entry O=C(O)[C@H]1[C@H](CSCc2ccccc2)CC[C@@H]1C(=O)c1ccc(-c2ccc(Cl)cc2)cc1 (relative stereo) : 0.022

Form field IC50, entry CCCCCOc1ccc(-c2ccc(C(=O)CC(CCCc3ccccc3)C(=O)O)cc2)cn1 (stereo not shown) : 0.969

Form field IC50, entry COc1ccc(C(=O)OC[C@@H]2CC[C@H](C(=O)c3ccc(-c4ccc(Cl)cc4)cc3)[C@H]2C(=O)O)cc1 (relative stereo) : 0.11

Form field IC50, entry CCCCCCOc1ccc(-c2ccc(C(=O)C3CCC=C3C(=O)O)cc2)cc1 (stereo not shown) : 4.61

Form field IC50, entry O=C(C[C@H](CCCc1ccccc1)C(=O)O)c1ccc(-c2ccc(Cl)cc2)cc1 : 0.038

Form field IC50, entry C#Cc1ccc(-c2ccc(C(=O)CC(CCCc3ccccc3)C(=O)O)cc2)cc1 (stereo not shown) : 0.05

Form field IC50, entry COc1cccc2c1C(=O)N(CCC(CC(=O)c1ccc(-c3ccc(Cl)cc3)cc1)C(=O)O)C2=O (stereo not shown) : 0.015

Form field IC50, entry O=C(O)c1ccc(COc2ccc(-c3ccc(C(=O)CC(CCCc4ccccc4)C(=O)O)cc3)cc2)cc1 (stereo not shown) : 0.044

Form field IC50, entry O=C(O)c1ccc(CCC(CC(=O)c2ccc(-c3ccc(Cl)cc3)cc2)C(=O)O)cc1 (stereo not shown) : 0.127

Form field IC50, entry CCCC/C=C\c1ccc(-c2ccc(C(=O)CC(CCCc3ccccc3)C(=O)O)cc2)cc1 (stereo not shown) : 0.188

Form field IC50, entry COCCCc1ccc(-c2ccc(C(=O)CC(CCCc3ccccc3)C(=O)O)cc2)cc1 (stereo not shown) : 0.09

Form field IC50, entry O=C(CC(CCc1ccccc1C(=O)O)C(=O)O)c1ccc(-c2ccc(Cl)cc2)cc1 (stereo not shown) : 0.111

Form field IC50, entry O=C(CC(CCSc1ccccc1)C(=O)O)c1ccc(-c2ccc(Cl)cc2)cc1 (stereo not shown) : 0.035
